Tested on: Microfilaria of Dirofilaria immitis
Test Description: Motility of Dirofilaria immitis microfilariae in microtiter plate, 3 days, dose response
Assay type: cell-based
Measurement Context: 72 h, read-out: EC50, motility of D. immitis microfilaria, three days at 37° C., 5% CO2, vs DMSO control
pEC50: −log10 of the molar value.
Test Readout: pEC50

Compound: Cc1cc2c(C(C)(C)C)c(C(=O)N[C@H]3CCOc4ccccc43)cnn2c1-c1cccc(Cl)c1Cl
Readout Value: > 8.00
--
Compound: Cc1cc2c(C(C)(C)C)c(C(=O)N[C@H]3CCc4ccccc43)cnn2c1-c1cc(Cl)cc(Cl)c1
Readout Value: 5.00 to 6.00
--
Compound: Cc1cc2c(C(C)(C)C)c(C(=O)N[C@H]3CCCc4cc(Cl)ccc43)cnn2c1-c1cc(F)cc(Cl)c1Cl
Readout Value: 6.00 to 7.00

Entry CC(C)c1c(C(=O)N[C@H]2CCOc3ccccc32)cnn2c(-c3cc(F)cc(Cl)c3Cl)c(Cl)cc12 , pEC50 reported as > 8.00

Entry CC(C)(C)c1c(C(=O)N[C@H]2CCc3ccccc32)cnn2c(-c3cc(Cl)cc(Cl)c3)c(Cl)cc12 , pEC50 reported as 7.00 to 8.00

Entry Cc1cc2c(C(C)(C)C)c(C(=O)N[C@H]3CCc4sccc43)cnn2c1-c1cc(F)cc(Cl)c1Cl , pEC50 reported as > 8.00

Entry Cc1cc2c(C(C)(C)C)c(C(=O)NC3CCCc4ncsc43)cnn2c1-c1cc(F)cc(Cl)c1Cl (stereo not shown) , pEC50 reported as 7.00 to 8.00

Entry Cc1cc2c(C(C)(C)C)c(C(=O)N[C@H]3CC4(CCCC4)Oc4ccccc43)cnn2c1-c1cc(F)cc(Cl)c1Cl , pEC50 reported as 5.00 to 6.00

Entry Cc1cc2c(C(C)(C)C)c(C(=O)N[C@H]3CCc4ncccc43)cnn2c1-c1cc(F)cc(Cl)c1Cl , pEC50 reported as 7.00 to 8.00

Entry CC(C)(C)c1c(C(=O)N[C@H]2CCOc3ccccc32)cnn2c(-c3cc(F)cc(F)c3F)c(Cl)cc12 , pEC50 reported as > 8.00
